From: patent US5061794A

Tested on: E. coli CSH(RE45)
Assay Text: microbe, parasite or virus in culture
Type: cell-based
Condition Label: Escherichia coli, 16 h, read-out: Minimum Inhibitory Concentration (MIC), *E. coli CSH(RE45), lactamase-producing strain; 10^6 CFU/ml
Protocol: The in vitro antibacterial activities of the compounds of the present invention against various microorganisms, were measured by the following agar plate dilution method. One platinum loopfull of each test microorganism incubated overnight in Mueller Hinton broth, was inoculated to Mueller Hinton agar (inoculum size: 10^6 CFU/ml). […] After incubation at 37° C. for 16 hours, the minimum inhibitory concentrations (MIC: μg/ml) were measured.
Experimental Endpoint: MIC (µg/mL)
Give a bare numeral; the unit µg/mL is implied.

Q: GET /values?readout=MIC&item= CO/N=C(\C(=O)N[C@@H]1C(=O)N2C(C(=O)O)=C(CSc3nc(-c4ccc(O)cc4)cs3)CS[C@H]12)c1csc(N)n1 [compound 10, reference compound]
Ans: 0.78

Q: GET /values?readout=MIC&item= CC(C)(O/N=C(\C(=O)N[C@@H]1C(=O)N2C(C(=O)O)=C(CSc3nnc(-c4ccc(O)cc4)o3)CS[C@H]12)c1csc(N)n1)C(=O)O [compound 4, reference compound]
Ans: 0.78

Q: GET /values?readout=MIC&item= CO/N=C(\C(=O)N[C@@H]1C(=O)N2C(C(=O)O)=C(CSc3nc(-c4ccccc4)c(CC(=O)O)s3)CS[C@H]12)c1csc(N)n1 [compound 15, reference compound]
Ans: 0.78
